Parameter TGI: see the listing below.
# Tested on: UACC-62 melanoma
# experiment_description: NCI tumour cell line growth inhibition, 48 h
*1 amine or outer side, *2 acyl side, *3 side chain or, on linkers, in order; H or OH if unused. Where a SMILES comes first, the peptide text is derived from it. [ ]: non-standard residue; d: D form. ξ: configuration not given here. X21 = CC[C@@H](C)C(N[*:1])C(=O)[*:2]; ξR = N=C(N)NCCCC(N)C(=O)O; ξI = CCC(C)C(N)C(=O)O; ξL = CC(C)CC(N)C(=O)O; ξK = NCCCCC(N)C(=O)O; ξV = CC(C)C(N)C(=O)O; ξA = CC(N)C(=O)O
Respond numerically; units are µM and should not be typed.

Illustrative cases are given below, each with its answer.
compound | TGI, µM
Cc1c2c(cc3c(=O)ccn(CCN(C)C)c13)c(=O)ccn2CCN(C)C | 31.6
COc1cc(/C=C(\OC(C)=O)c2ccc3c(c2)OCO3)cc(OC)c1OC | 34.2
CC(=O)Oc1ccc(/C=C/C(=O)O[C@H]2CCCC[C@@H]2OC(=O)/C=C/c2ccc(OC(C)=O)c(OC(C)=O)c2)cc1OC(C)=O | 17.7

GET /values?readout=TGI&item= CCC(C)C1NC(=O)C(CC(C)C)NC(=O)C(C)NC(=O)C(C(C)C)NC(=O)C(CCCCN)NC(=O)C(CC(C)C)NC(=O)C(C(C)C)NC(=O)[C@H](C)NC(=O)C(C(C)CC)NC(=O)C(CCCN=C(N)N)NC(=O)C(CCCCN)NC(=O)C(CCCN=C(N)N)NC(=O)C(CCCCN)NC(=O)C([C@H](C)CC)NC(=O)C(CCCCN)NC1=O (some centres not stated) (cyclo(A[ξV][ξL][ξK][ξV][ξA][ξL][ξI][ξK][X21][ξK][ξR][ξK][ξR][ξI]))
2.85

Consider the compound shown here: C=C1C(=O)OC2CC(C)C3C=CC(=O)C3CC12 (configuration not stated) What is its recorded TGI?
3.74

Each recorded value in this set is attributed to PubChem BioAssay (NCI).
